Test system: NCI-H522
Just a reminder that ties go to not met: only GI50 strictly below 20 µM counts as met.

[[record]]
molecule = "O=Cc1ccc(-c2ccc(-c3ccc(C=O)s3)[se]2)s1 [NSC 675345]"
category_label = "not met"

[[record]]
molecule = "OCc1ccc(-c2ccc(-c3ccc[se]3)[se]2)[se]1 [compound 675246]"
category_label = "met"

[[record]]
molecule = "OCc1ccc(-c2ccc(-c3ccc(CO)[se]3)[se]2)[se]1 [compound 675247]"
category_label = "met"

[[record]]
molecule = "O=Cc1ccc(-c2ccc(-c3ccc[se]3)[se]2)[se]1 [NSC 675244]"
category_label = "met"

[[record]]
molecule = "OCc1ccc(-c2ccc(-c3cccs3)[se]2)s1 [NSC 675344]"
category_label = "not met"

[[record]]
molecule = "OCc1ccc(-c2ccc(-c3ccc(CO)s3)[se]2)s1 [compound 675343]"
category_label = "not met"

[[record]]
molecule = "O=Cc1ccc(-c2ccc(-c3ccc(C=O)[se]3)s2)[se]1 [NSC 676630]"
category_label = "not met"

[[record]]
molecule = "OCc1ccc(-c2ccc(-c3ccc(CO)[se]3)s2)s1 [compound 688830]"
category_label = "not met"

[[record]]
molecule = "OCc1ccc(-c2ccc(-c3ccc[se]3)s2)[se]1 [compound 676631]"
category_label = "met"

[[record]]
molecule = "O=Cc1ccc(-c2ccc(-c3cccs3)[se]2)s1 [NSC 675346]"
category_label = "not met"

[[record]]
molecule = "OCc1ccc(-c2ccc(-c3ccc(CO)[se]3)s2)[se]1 [compound 676632]"
category_label = "not met"

[[record]]
molecule = "O=Cc1ccc(-c2ccc(-c3ccc(C=O)[se]3)s2)s1 [compound 688829]"
category_label = "met"

[[record]]
molecule = "O=Cc1ccc(-c2ccc(-c3ccc(C=O)[se]3)[se]2)[se]1 [NSC 675245]"
category_label = "not met"

